Target: Cytochrome P450 3A4 (Homo sapiens)
Test: qHTS Assay for Inhibitors and Substrates of Cytochrome P450 3A4 (AID 884); further: nearly all actives have a fitted effect of over 50% in size
Settings: recombinant CYP3A4, Luciferin-PPXE luminescence; series mostly up to 57.1 µM
Records with an inconclusive call do not appear. Active and inactive are the calls of the source. The call rests on the fitted dose curve; in most records, active means well fitted inhibition curve with a large enough effect; inconclusive means small, poorly fitted or top-dose-only effect; inactive means no such curve, though single readings can be large or run the other way.
Outcomes: true (1) (active), false (0) (inactive)

COMPOUND	CLASS
O=C1Nc2ccc(I)cc2/C1=C/c1cc(Br)c(O)c(Br)c1	true (1)
C[N+](C)(C)CC(=O)[O-]	false (0)
CC1CCCC(=O)CCC/C=C/c2cc(O)cc(O)c2C(=O)O1 (stereo unspecified)	true (1)
CC(C)(c1ccc(OCC2CO2)cc1)c1ccc(OCC2CO2)cc1 (stereo unspecified)	false (0)
O=c1c2ccccc2oc2ccccc12	true (1)
CC(C)COC(=O)c1ccccc1C(=O)OCC(C)C	false (0)
CCCCC1(C2CCCC2)Cc2cc(OCCCC(=O)O)c(Cl)c(Cl)c2C1=O (stereo unspecified)	false (0)
O=C(Cc1ccc(Cl)c(Cl)c1)N1CCCC[C@H]1CN1CCCC1	true (1)
NC(=NCCc1ccc(I)cc1)SCCCc1cnc[nH]1	true (1)
O=Cc1ccccc1	false (0)
COc1ccn(C)c(=O)c1C#N	false (0)
CCOc1cc(C=O)ccc1O	false (0)
COc1c2ccoc2cc2oc(=O)ccc12	true (1)
c1ccc2c(c1)-c1cccc3cccc-2c13	false (0)
CC(=O)/C=C/c1ccccc1	false (0)
C=C(C)[C@H]1CN[C@H](C(=O)O)[C@@H]1CC(=O)O	false (0)
CCC1CN2CCC1CC2C(O)c1ccnc2ccccc12 (stereo unspecified)	false (0)
O=C(O)CF	false (0)
CCOC(=O)c1ncn2c1[C@H]1CCCN1C(=O)c1cc(OC)ccc1-2	false (0)
Oc1ccc(-c2nc(-c3ccc(F)cc3)c(-c3ccncc3)[nH]2)cc1	true (1)
COC(=O)c1cc2c(cn1)[nH]c1ccccc12	false (0)
CN1[C@@H]2CC[C@H]1CC(OC(=O)N1Cc3ccccc3NC1=O)C2 (stereo partly specified)	false (0)
Cc1ccccc1O	false (0)
O=c1c(O)c(-c2ccc(O)c(O)c2)oc2c(O)c(O)cc(O)c12	false (0)
CC(C)=CCCC1(C)C=Cc2c(O)c3c(c(CC=C(C)C)c2O1)OC12C(=CC4CC1C(C)(C)OC2(C/C=C(/C)C(=O)O)C4O)C3=O (stereo unspecified)	true (1)
OC1(c2ccc(Cl)cc2)CCN(Cc2c[nH]c3ccccc23)CC1	false (0)

====

Assay: Primary qHTS to identify inhibitors of SARS-CoV-2 cell entry (AID 1645846); further: nearly all actives have a fitted effect of over 45% in size
Conditions: SARS-CoV-2 pseudovirus cell entry assay, luminescence; series mostly up to 57.1 µM
Inconclusive results are not listed. Activity calls are given as the source filed them. Calls come from the whole dose curve.
Outcomes: active, inactive

COMPOUND	CLASS
Fc1ccc(CNc2ncnc3ccc(F)cc23)cc1	active
COc1ccc(CC2=NN3C([C@@H](CCc4ccccc4)[C@@H](C)O)=NC(C)C3C(=O)N2)cc1OC (stereo not given in full)	inactive
Cc1cn2cc(C(=O)N(C)CCO)cc(N[C@@H]3CCOc4cccc(C)c43)c2n1	inactive
Cc1cnc(NC(=O)Nc2cc(Br)c(C)cc2OC[C@@H]2CNCCO2)cn1	active
CCS(=O)(=O)Nc1ccc2[nH]c(O)c(C(=Nc3ccc(CN4CCCCC4)cc3)c3ccccc3)c2c1	active
COc1nccc(-c2c(-c3ccc(F)cc3)ncn2C2CCC(O)CC2)n1 (stereo not given)	inactive
C[C@]12CC[C@@H]3c4ccc(O)cc4CC[C@H]3[C@H]1[C@@H](O)[C@@H](O)[C@H]2O	inactive
NC(=O)c1cccc(N)c1	inactive
CCN(CC)CCCCNc1ncc2c(n1)N(C)C(=O)N(c1c(Cl)c(OC)cc(OC)c1Cl)C2	active
CCc1ccc(C(=O)Nc2cc(CN3CCN(C)CC3)cc(C(F)(F)F)c2)cc1C#Cc1cnc2ccnn2c1	active

====

Test: qHTS for activators of Nrf2/ARE signaling pathway screened against the NCATS CANVASS Library (AID 1347391); further: nearly all actives have a fitted effect of over 60% in size; on activation: 0% is about no effect
Conditions: ARE-bla HepG2, beta-lactamase reporter, 16 h; series mostly up to 46.1 µM
Records with an inconclusive call do not appear. Calls of active or inactive are those of the source. The call rests on the fitted dose curve; in most records, active means well fitted activation curve with a large enough effect; inconclusive means small, poorly fitted or top-dose-only effect; inactive means no such curve, though single readings can be large or run the other way.
Outcomes: active, inactive

COMPOUND	CLASS
CNCCc1ccccc1	inactive
C/C=C1/CN2CC[C@]34C(=Nc5ccccc53)[C@@H]2C[C@@H]1[C@H]4C(=O)OC	inactive
CCN1C[C@]2(C)CC[C@@H](O)[C@]34C1[C@H](C[C@H]23)C12CCC(CC14)[C@](O)(CO)[C@H]2O (some centres not stated)	inactive
CCCC[C@@H]1CC[C@H]2CCCC(CCC)N12 (some centres not stated)	inactive
CCC[C@H]1CC[C@H]2[C@H](C)CCC[C@H]2N1	inactive
CCC(=O)CCCCC[C@@H]1NC(=O)[C@H]2CCCCN2C(=O)[C@H]([C@@H](C)CC)NC(=O)[C@H](Cc2cn(OC)c3ccccc23)NC1=O	inactive
CC1=CC(=O)C2=C(C)C[C@H](O)[C@@H]3[C@H](OC(=O)[C@@H]3C)[C@@H]12	active
CC(=O)N[C@H]1CCN2CCC[C@H]12	inactive
CC[N@@+]1([O-])C[C@]2(C)CC[C@@H](O)[C@@]34C5C[C@H]6CC[C@@]5(C(C[C@H]23)C41)[C@H](O)[C@@]6(O)CO (some centres not stated)	inactive
O=C(c1ccccc1O)c1[nH]c(Cl)c(Cl)c1-n1c(C(=O)c2ccccc2O)cc(Cl)c1Cl	inactive
c1ccc2c3c([nH]c2c1)CNCC3	inactive
NCCc1ccccc1	inactive
CO[C@@H](/C=C/CC/C=C/C(=O)O)[C@@H](O)[C@H](C)[C@@H](O)/C(C)=C/[C@H](C)C(=O)CCCC1CC(=O)NC(=O)C1	inactive
CCCCC[C@@H]1OC(=O)[C@@H](C)N(C)C(=O)[C@H](CCCCC)OC(=O)C(C)N(C)C(=O)[C@H](CCCCC)OC(=O)[C@@H](C)N(C)C(=O)[C@H](CCCCC)OC(=O)C(C)N(C)C1=O (some centres not stated)	inactive
CO[C@H](c1ccccc1)[C@H]1NC(=O)C(C)NC(=O)C(C[C@@H](C)CO)N(C)C(=O)[C@@H](C(O)c2cn(C(C)(C)C3CO3)c3ccccc23)NC(=O)C(C(C)C=C(C)C)NC(=O)C(CC(C)C)N(C)C(=O)C(C(C)C)NC1=O (some centres not stated)	inactive
C=C1[C@@H](C)[C@H]2[C@H](Cc3ccccc3)NC(=O)[C@]23OC(=O)/C=C/[C@H](O)CCC[C@@H](C)C/C=C/[C@H]3[C@@H]1O	inactive
CN(C)Cc1c[nH]c2ccccc12	inactive

====

Test system: CP269
Assay: qHTS profiling for inhibitors of Plasmodium falciparum proliferation (AID 504749); further: nearly all actives have a fitted effect of over 60% in size; further: potency means the concentration at half of the fitted maximal effect
Conditions: P. falciparum in erythrocytes, SYBR Green DNA, 72 h; series mostly up to 28.7 µM
Records with an inconclusive call do not appear. Activity calls are given as the source filed them. Calls come from the whole dose curve; as a rule, active = well fitted inhibition curve with a large enough effect; inconclusive = small, poorly fitted or top-dose-only effect; inactive = flat fitted curve, though single readings scatter.
READOUT LABEL: Potency

1) CCCCCCCCCC[N+](C)(C)CCCCCCCCCC 4.78 µM (active)
2) Cc1cccc([C@H](C)c2cnc[nH]2)c1C inactive
3) C[N+](C)(C)CC(=O)[O-] inactive
4) CCN1C[C@]2(COC)[C@H](O)C[C@H](OC)[C@]34C1C([C@H](OC)[C@H]23)[C@]1(OC(C)=O)C2[C@@H](OC(=O)c3ccccc3)C(O)(C[C@H]24)[C@@H](OC)[C@@H]1O inactive

====

Tested on: Tov112D
Assay: Primary qHTS to identify gynecologic anti-cancer compounds using libraries of approved drugs and bioactive compounds (AID 1345084); further: nearly all actives have a fitted effect of over 55% in size; further: potency means the concentration at half of the fitted maximal effect
Conditions: Gynecologic cancer cell panel viability, ATPlite luminescence, 48 h; series mostly up to 57.5 µM
Records with an inconclusive call do not appear. Activity calls are given as the source filed them. The call rests on the fitted dose curve; in most records, active means well fitted cell-killing curve with a large enough effect; inconclusive means small, poorly fitted or top-dose-only effect, or effect the other way; inactive means flat fitted curve, though single readings scatter.

MOLECULE	SUBJECT OF TEST	Potency
CCC1CN2CCC3(C(=O)Nc4cccc(O)c43)C2CC1/C(=C/OC)C(=O)OC (centres undefined)	Tov112D	inactive
C=C1[C@@]23C(=O)O[C@H](C)[C@]24O[C@@]2(C(=C)[C@]5(C=CC(=O)OC5(C)C)CC[C@]32C)[C@H](O)[C@@]1(C)OC4=O	Tov112D	inactive
C[C@]12CC[C@H](O[C@@H]3O[C@H](CO)[C@@H](O)[C@H](O)[C@H]3O)CC1CC[C@@H]1C2CC[C@]2(C)[C@@H](C3=CC(=O)OC3)CC[C@]12O (some centres undefined)	Tov112D	3.16 µM (active)
CCCCCn1cc(C(=O)Oc2cccc3cccnc23)c2ccccc21	Tov112D	inactive

====

System: Zika virus NS2B-NS3 protease (linked construct)
Assay: Primary screen NINDS Rhodamine qHTS for Zika virus inhibitors (AID 1347160); further: nearly all actives have a fitted effect of over 55% in size
Conditions: purified NS2B-NS3 protease, Rhodamine110 substrate fluorescence; series mostly up to 57.1 µM
Records with an inconclusive call do not appear. Activity calls are given as the source filed them. Calls follow the shape of the dose curve; as a rule, active = well fitted inhibition curve with a large enough effect; inconclusive = small, poorly fitted or top-dose-only effect; inactive = no such curve, though single readings can be large or run the other way.
Outcomes: true (1) for active, false (0) for inactive

COMPOUND	CLASS
CO[C@H]1C[C@H](O[C@H]2CC[C@]3(CO)[C@H]4CC[C@]5(C)[C@@H](C6=CC(=O)OC6)CC[C@]5(O)[C@@H]4CC[C@]3(O)C2)O[C@H](C)[C@H]1O	false (0)
COc1ccc(C(C)(C)C)cc1CN[C@H]1C2CCN(CC2)[C@H]1C(c1ccccc1)c1ccccc1	false (0)
C=CC(C)(C)C12C=C(O)C(=O)N3/C(=C\c4cnc[nH]4)C(=O)NC31N(OC)c1ccccc12 (configuration not stated)	false (0)
COc1cc(O)c2c(c1)/C=C/C[C@@H](O)[C@@H](O)C(=O)CCC[C@H](C)OC2=O	false (0)
CCC(=O)CCCCC[C@@H]1NC(=O)[C@H]2CCCCN2C(=O)[C@H]([C@@H](C)CC)NC(=O)[C@H](Cc2cn(OC)c3ccccc23)NC1=O	true (1)
CC(C)[C@H](NC(=O)c1nn(Cc2ccc(F)cc2)c2ccccc12)C(N)=O	false (0)
NCCc1ccccc1	false (0)
CN1Cc2c(ccc3c2OCO3)[C@@H]2[C@H]1c1cc3c(cc1C[C@@H]2O)OCO3	false (0)
COC(=O)C12C(=O)C(C)(O)C(=O)C1(C)C(C)=CC1C34CCC(OC3=O)C(C)(C)C4CCC12C (configuration not stated)	false (0)
Oc1ccc2c(c1)C13CCCC[C@H]1[C@@H](C2)N(CC1CCC1)CC3	false (0)
Cc1sc2c(c1C)C(c1ccc(Cl)cc1)=N[C@@H](CC(N)=O)c1nnc(C)n1-2	false (0)
C[C@@H]1C[C@@H](O)[C@]2(O)O[C@@H]3C[C@@]4(C=O)C(CC[C@@H]5C4CC[C@]4(C)[C@@H](C6=CC(=O)OC6)CC[C@]54O)C[C@H]3O[C@@H]2O1 (some centres not stated)	false (0)
CC(=O)O[C@@H]1[C@@H](O)[C@H]2O[C@@H]3C=C(C)[C@@H](O)C[C@]3(CO)[C@]1(C)[C@]21CO1	false (0)
Clc1ccc([C@]23CNC[C@H]2C3)cc1Cl	false (0)
CC1=C[C@H]2O[C@@H]3[C@H](O)[C@@H](O)[C@](C)([C@@]2(CO)C[C@@H]1O)[C@]31CO1	false (0)
O=C(N1CCCCC1Cc1ccccc1)n1cc(-c2ccc(-c3ccccc3)cc2)nn1 (configuration not stated)	false (0)
C=C1[C@@H](O)[C@]2(O)OC[C@]34C2[C@]2(C)C(C[C@H]3OC(=O)[C@H](O)[C@@]14O)C(C)=CC(=O)[C@H]2O (some centres not stated)	false (0)
